Assay: Human HepG2 cell viability assay in 384 well format
Format: toxicity, cell-based
Design: dose 125 nL, time 70.5 hour; concentration not given beside the values
Details: HepG2 cells, read-out: Inhibition
cytotoxicity at 70.5 h values, listed per item
The response must be a number in % with no trailing unit.

In the examples that follow, each entry is paired with its recorded cytotoxicity at 70.5 h.
• CC(=O)N1N=C(COc2ccc3c(c2)OCO3)OC1c1cccc(Cl)c1 (stereo unspecified) = -2.04
• CC(C)c1cc(NCC(O)c2ccncc2)n2nccc2n1 (stereo unspecified) = 14.4
• CC(=O)NCCNC(=O)NCC1Cc2ccccc2O1 (stereo unspecified) = -4.29
• CN(C)CC(=O)N1CCc2ncnc(-c3ccsc3)c2CC1 = -0.46
• COc1ccc(CNc2c(C)cnc3c2c(=O)n(C)c(=O)n3C)cc1 = 7.6

Recorded result, COc1ccc(OC)c(CNC2CCCN(c3cccnn3)C2)c1 (stereo unspecified) , cytotoxicity at 70.5 h: -3.12

Notebook: OCC1CCCN1c1cc(NCc2cccnc2)ncn1 (stereo unspecified) , cytotoxicity at 70.5 h read as -1.41

Quick note, cytotoxicity at 70.5 h for O=c1c(NCCc2ccc(O)cc2)c(NCc2ccncc2)c1=O landed at -0.102

CCc1ccc(-c2ncc3c(n2)N(C)CCN(CCN(C)C)C3=O)cc1 has a reported cytotoxicity at 70.5 h of -5.02

Briefly, cytotoxicity at 70.5 h measured for COCCN(Cc1ccoc1)S(=O)(=O)c1ccc(F)c(C)c1 : -11

GET /value?item= c1cc(CO[C@@H]2CC[C@H]3[C@H]2OCCN3Cc2ccoc2)ccn1 &field=cytotoxicity at 70.5 h returns -14.9

###

Assay: Human HepG2 cell viability assay in 384 well format
Assay type: toxicity, cell-based
Design: dose 125 nL, time 70.5 hour; concentration not given beside the values
Details: HepG2 cells, read-out: Inhibition
measured.quantity: cytotoxicity at 70.5 h (%)
Provide the reading as a plain figure in %.

Recorded cytotoxicity at 70.5 h, per entry:
- CCNC(=O)C1CCN(c2nccc(C3CCCC3)n2)C1 (centres undefined): -17.7
- CCc1ccccc1C(=O)NS(=O)(=O)CCCC#N: 10.5
- O=C1COC2(CCN(c3cccc(F)c3)CC2)CN1Cc1ccccn1: 0.382

Kindly note the recorded cytotoxicity at 70.5 h for CCOCCC(=O)NCCNc1nccc(C(F)(F)F)n1 , which is 2.23

Form: compound = CCc1noc(CC)c1CNC(=O)Nc1cccc([S+](C)[O-])c1 (centres undefined) ; cytotoxicity at 70.5 h = -1.9

Query CCN1CCN(C(=O)CCC2CCN(C(C)CCC(=O)OC)CC2)CC1 (centres undefined) yields cytotoxicity at 70.5 h of 8.92

Kindly note the recorded cytotoxicity at 70.5 h for O=C1c2cnc(N3CCCC3)nc2CN1C1CCS(=O)(=O)C1 (centres undefined) , which is -2.78

The reported value for COCCOc1cccc(C(=O)N2CCCC(n3cccn3)C2)c1 (centres undefined) in terms of cytotoxicity at 70.5 h is -14.7

Lookup result for COc1ccc2[nH]cc(C(=O)N3C[C@@H](O)[C@H](NS(C)(=O)=O)C3)c2c1 ; measured cytotoxicity at 70.5 h: -6.21

Record summary for Cc1ccc([C@H]2CN(C(=O)CC3CCC3)C[C@@H]2N)o1 : reported cytotoxicity at 70.5 h = 0.0304

Consider CC(C)CNC(=O)C1(Cc2ccccc2-c2ccccc2)CCNC1 (centres undefined) . Its measured cytotoxicity at 70.5 h is -3.17

The value of cytotoxicity at 70.5 h measured for the compound CS(=O)(=O)c1cccc(C(N)c2ccc(Cl)cc2)c1 (centres undefined) turned out to be -4.71

cytotoxicity at 70.5 h for CC(C)(CNC(=O)CCCOc1cccc(F)c1)C(N)=O is -14.4

# compound CCc1nnc(SCc2nonc2C)n1C ; its cytotoxicity at 70.5 h = -11.2

// sample Cc1cnn(Cc2cccc(OCC(N)=O)c2)c1 , its cytotoxicity at 70.5 h was -1.49

Per the records, this compound ( O=C(NCc1ccccc1CN1CCOCC1)Nc1nncs1 ) has cytotoxicity at 70.5 h equal to 11

Reported cytotoxicity at 70.5 h ( CN1C(=O)CC2(CCN(S(=O)(=O)c3cccs3)CC2)c2ccccc21 ) = 8.66

Entry under test: CC1(c2ccccc2)CCC(=O)N(CC2(N3CCOCC3)CCCC2)C1 (centres undefined) . Its cytotoxicity at 70.5 h was 6.77

For record CNC(=O)c1cc2c(nc1N(C)C)CCN(c1ncc(F)cn1)CC2 the listed cytotoxicity at 70.5 h is -13.5

Form field cytotoxicity at 70.5 h, entry O=C(COCc1ccccc1)N1CCN(Cc2ccccc2F)C(=O)C1 : -9.08

// COCC(=O)N(Cc1ccc2cc[nH]c2c1)C1CC1 : cytotoxicity at 70.5 h value = -21

Given item c1cnn(CCCO[C@@H]2CC[C@H]3[C@H]2OCCN3CC2CCOCC2)c1 , the value recorded as its cytotoxicity at 70.5 h is -5.34

Entry under test: CN(Cc1cnccn1)S(=O)(=O)N1CCCC1c1ccco1 (centres undefined) . Its cytotoxicity at 70.5 h was 1.01

The measured cytotoxicity at 70.5 h associated with CC(C)c1nc2n(n1)CC(NCC(=O)N(C)Cc1cccs1)CC2 (centres undefined) reads -13.3

###

Listing of recorded cytotoxicity at 70.5 h by entry.
Assay: Human HepG2 cell viability assay in 384 well format
Type: toxicity, cell-based
Design: dose 125 nL, time 70.5 hour; concentration not given beside the values
Details: HepG2 cells, read-out: Inhibition
Lab book: enter the figure in %, no units written.

Reference set, count: 3
* COc1ccc(CN2CCC3(CCCN(C)C3=O)C2)c(OC)c1C (stereo unspecified) | -10.1
* CCc1nc(C)cc(N2CCCC(C(=O)c3ccc(OC)cc3C)C2)n1 (stereo unspecified) | 6.28
* C[C@@H]1CN(C(=O)c2ccc[nH]2)C[C@]12CCN(CCN1CCCC1)C2=O | -5.21

Quick note, cytotoxicity at 70.5 h for CSC(C)(C)CNC(=O)NCC[S+]([O-])c1ccccc1 (stereo unspecified) landed at -6.22

GET /value?item= CCN1CCN(c2nc(O)cc(Cc3ccccc3F)n2)CC1 &field=cytotoxicity at 70.5 h returns -0.665

cytotoxicity at 70.5 h measured on COC(=O)c1c(Cl)c(C2CC2)nc2onc(C)c12 = 2.98

###

Test: Human HepG2 cell viability assay in 384 well format
Format: toxicity, cell-based
Set-up: dose 125 nL, time 70.5 hour; concentration not given beside the values
Details: HepG2 cells, read-out: Inhibition
Here the recorded cytotoxicity at 70.5 h is given for each entry.
Report the figure in % without appending any unit label.

Record summary for NCC(=O)N1CCC(c2ccnc(Nc3cc(C(F)(F)F)ccn3)n2)C1 (stereo unspecified) : reported cytotoxicity at 70.5 h = 16.8

cytotoxicity at 70.5 h for CC(C)=CCS(=O)(=O)Cc1ccn(-c2cccc(F)c2)n1 is -6.79

###

This section presents compounds with their documented cytotoxicity at 70.5 h values.
Experiment: Human HepG2 cell viability assay in 384 well format
Type: toxicity, cell-based
Design: dose 125 nL, time 70.5 hour; concentration not given beside the values
Settings: HepG2 cells, read-out: Inhibition
Dear colleague, please return just the value in %, with no unit written.

See these solved cases before continuing.
* COCC(=O)N1CCC2(CC1)CC(N1CCOCC1)c1ccc(C)cc12 (stereo not drawn) | 0.692
* Cc1n[nH]cc1CNC1(c2ccc(F)cc2)CCCC1 | -7.33
* O=C1CCOC[C@]2(CN(Cc3ccccc3)C[C@H]2c2ccccc2)N1 | 26.7
* CC(C)(C)CC(=O)N1CCC(n2cc(C3(O)CCCC3)nn2)CC1 | -7.65

For Fc1ccc(C2CCCN2Cc2nnnn2C2CC2)cc1 (stereo not drawn) the compound record lists cytotoxicity at 70.5 h as 28.2

Per the records, this compound ( COCCC(=O)N1CCCC2(CCCN2Cc2ccccc2F)C1 (stereo not drawn) ) has cytotoxicity at 70.5 h equal to -107

# cytotoxicity at 70.5 h (compound: Cc1ccc(S(=O)(=O)NC2CC2)cc1C ) is -5.86

Consider CCS(=O)(=O)c1ccc(N2CCC(N)CC2)cc1 . Its measured cytotoxicity at 70.5 h is -1.97

Record CN(C)c1cccc(C(=O)Nc2ccn(CCc3ccncc3)n2)c1 . Reported cytotoxicity at 70.5 h: -12.6

Entry under test: O=C(O)c1c(Cl)ncn1-c1ccccc1 . Its cytotoxicity at 70.5 h was -9.78

Record Cc1nc(C)c(S(=O)(=O)NC(=O)c2cccs2)s1 . Reported cytotoxicity at 70.5 h: -4.64

Note to self: cytotoxicity at 70.5 h recorded for Cc1ccc2nc(C)c(C)c(C(=O)N3CCS(=O)(=O)CC3)c2c1 was -12.9

Reported cytotoxicity at 70.5 h for Cc1ncc(CN2CCOCC2)c2cc(C(=O)c3ccc(Br)cc3)oc12 was -13.8

Query CC(C)n1cnc2c1C(C(=O)N1CCCC1)N(CC1CC1)CC2 (stereo not drawn) yields cytotoxicity at 70.5 h of -1.74

cytotoxicity at 70.5 h for CC(Cc1ccsc1)NC(=O)c1cc(N2CCNC2=O)ccc1F (stereo not drawn) is -9.62

response.value for O=S(=O)(CCO)Cc1ccc(OCC(F)(F)F)cc1 (field: cytotoxicity at 70.5 h) = -9.29

For record COCCN(C)C[C@@H]1CN(C(=O)c2cccc(C(F)(F)F)c2)C[C@@H]1CO the listed cytotoxicity at 70.5 h is -9.39

cytotoxicity at 70.5 h recorded for this compound, O=C(Cn1ccc(C(=O)O)n1)Nc1c(Cl)cccc1Cl , is -3.45

For record Cn1ccc2ccnc(CC3CN(C(=O)c4cscn4)C3)c21 the listed cytotoxicity at 70.5 h is -2.15

The measured cytotoxicity at 70.5 h associated with Cc1nn(C)c(C)c1CC(=O)N1CCc2nnc(N(C)C)cc2C1 reads -5.78

The compound listed as CC(NCc1cn(CCC(N)=O)c2ccccc12)c1nncn1C (stereo not drawn) has a reported cytotoxicity at 70.5 h of 23.7

// cytotoxicity at 70.5 h value for COc1cccc2c(=O)n(Cc3nc(C)cc(O)n3)cnc12 : -12.5

Item: CCN(CC)CCn1c(=O)oc2ccccc21 | cytotoxicity at 70.5 h: -3.03

Quick note, cytotoxicity at 70.5 h for CN1CCCC(c2cccc(-c3cccc(Cl)c3)n2)C1 (stereo not drawn) landed at 18

Lab note: measured cytotoxicity at 70.5 h of CCCN1CCC(N(C)CCC(=O)Nc2ccccc2SC)CC1 was 1.62

These data points were gathered from ChEMBL document CHEMBL3507680.
